tested on: U2OS; test: Multiplex assay against U2OS; format: toxicity, cell-based; settings: human, 48 h, 10 µM, compound concentration 10 uM
measurement-label: Population Normal (%)

- compound: "O=C(NCc1cccc(O)c1)Nc1nc(-c2ccncc2)cs1"
  measurement-label: "Population Normal (%)"
  reported: 100
- compound: "Cc1[nH]nc2ccc(-c3cncc(OCC(N)Cc4c[nH]c5ccccc45)c3)cc12 (stereo unspecified)"
  measurement-label: "Population Normal (%)"
  reported: 100
- compound: "Cc1cc(C)cc(C(=O)NOCCCCCC(=O)NO)c1"
  measurement-label: "Population Normal (%)"
  reported: 100
- compound: "CN1C[C@H](C(=O)N[C@]2(C)O[C@@]3(O)[C@@H]4CCCN4C(=O)[C@H](Cc4ccccc4)N3C2=O)C[C@@H]2c3cccc4[nH]cc(c34)C[C@H]21.CS(=O)(=O)O [DIHYDROERGOTAMINE MESYLATE]"
  measurement-label: "Population Normal (%)"
  reported: 96
- compound: "CC(C)(O)c1cnc(N2C[C@@]3(CCC[C@](C)(Cn4cnc5ccc(C#N)cc54)C3)OC2=O)cn1 [GSK2798745]"
  measurement-label: "Population Normal (%)"
  reported: 100
- compound: "CN(C)Cc1cccc(NC(=C2C(=O)Nc3cc(C(=O)N(C)C)ccc32)c2ccccc2)c1"
  measurement-label: "Population Normal (%)"
  reported: 100
- compound: "CCOc1c2c(c(OCC)c3ncccc13)CN(c1ccc(CS(=O)(=O)NC(=O)Cc3ccccc3OC)cc1C)C2=O"
  measurement-label: "Population Normal (%)"
  reported: 97
- compound: "NCCc1cn(S(=O)(=O)c2c(Cl)nc3sccn23)c2ccccc12.O=C(O)C(=O)O"
  measurement-label: "Population Normal (%)"
  reported: 92
- compound: "C[C@H](C[C@H](N)C(=O)O)C(=O)O [2S,4R-4-METHYLGLUTAMATE]"
  measurement-label: "Population Normal (%)"
  reported: 100
- compound: "CCOC(=O)c1cnn(-c2ccc(NC(=O)C(Cl)=C(Cl)Cl)cc2)c1C(F)(F)F"
  measurement-label: "Population Normal (%)"
  reported: 100
- compound: "CN1CCN(c2cc(-c3ccccc3)nc(N)n2)CC1"
  measurement-label: "Population Normal (%)"
  reported: 98
- compound: "Cc1cc(C)c(NC(=O)C2CC3CCC2C3)c(C)c1 (stereo unspecified)"
  measurement-label: "Population Normal (%)"
  reported: 100
- compound: "Cc1cc(NC(=O)c2cccc(NC(=O)/C=C/CN(C)C)c2)ccc1Nc1nccc(-c2cccnc2)n1"
  measurement-label: "Population Normal (%)"
  reported: 100
- compound: "O=C(Nc1cc(-c2ccccc2)nn1-c1ccccc1F)c1ccc([N+](=O)[O-])cc1"
  measurement-label: "Population Normal (%)"
  reported: 97
- compound: "Cn1ncnc1COc1nn2c(-c3cc(F)ccc3F)nnc2cc1C(C)(C)C"
  measurement-label: "Population Normal (%)"
  reported: 100
- compound: "CC(C)CNc1nc(N2CCN(CC3CCCOC3)CC2)ncc1C(=O)NCc1ccccc1 (stereo unspecified)"
  measurement-label: "Population Normal (%)"
  reported: 100
